Just for reference, the supplement of paper PMC10567573 is where these values come from.

B1: MYBL2 (parent)
chain: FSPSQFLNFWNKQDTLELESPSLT

- Variants of: B1
- protocol_text: protein stability index of a GFP-peptide fusion (GPS, HEK-293T) (PSI 1-6); higher = more stable;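 further: lentivirally expressed fusions sorted by FACS into six bins by GFP to DsRed ratio, PSI derived from sequencing read proportions per bin multiplied by bin number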
- details: c terminus: a fixed tail appended
measurement_name: protein stability index

Below are worked cases with known answers.
chain_sequence	protein stability index
FSPSQFLNFWNKQDTLELESPSLI [T24I]	2.2
FSPSQFLNFWNKQKTLELESPSLT [D14K]	4.25
FSPSQFLNFWEKQDTLELESPSLT [N11E]	2.73
YSPSQFLNFWNKQDTLELESPSLT [F1Y]	4.39
FMPSQFLNFWNKQDTLELESPSLT [S2M]	3.62
FSPSQFLNFWNAQDTLELESPSLT [K12A]	2.9

Give protein stability index for all variants that follow.
1. FSPSQFYNFWNKQDTLELESPSLT [L7Y]
2. FSPSQFLNFWQKQDTLELESPSLT [N11Q]
3. FSPSQFLNFWNKQDMLELESPSLT [T15M]

Outgoing:
1. 2.76
2. 2.77
3. 3.12

Give protein stability index for all variants that follow.
1. FSPSQFLNFWNKQDTLCLESPSLT [E17C]
2. FSPSQFLNIWNKQDTLELESPSLT [F9I]

Outgoing:
1. 2.41
2. 3.65
